# Tested on: CAKI-1 renal
# assay: NCI tumour cell line growth inhibition, 48 h
I'd be grateful if you could share measured log10(TGI) for these entries.
Could you please treat all values as log10 of TGI in µM?

compound	target-system	log10(TGI)
COc1ccccc1NC(=O)c1cc2cc(Br)ccc2cc1O	CAKI-1 renal	0.67
C/C(=N\NC(N)=S)c1ccc2c(c1)Sc1ccccc1O2	CAKI-1 renal	0.64
O=[N+]([O-])c1cc([N+](=O)[O-])c(C(F)(F)F)cc1NN=C(c1ccc(O)cc1)c1ccc(O)cc1	CAKI-1 renal	1.18

Provide the reported log10(TGI) of each entry below, same order.
1. COC(=O)[C@]12CC[C@@H](C)[C@H](C)[C@@H]1C1=CC[C@@H]3[C@@]4(C)C[C@@H](O)[C@H](O)[C@@](C)(CO)[C@@H]4[C@H](O)C[C@@]3(C)[C@]1(C)CC2
2. O=C1SC(SCc2ccccc2)=NC12CC2c1ccccc1 (configuration not stated)
3. CCCCCCOc1ccc(/C=N/Nc2cc(C)nc3ccc(Cl)cc23)cc1
4. O=C1C(Br)=C(Br)C(=O)c2ccc(=O)ccc21

Response:
1: 1.44; 2: 1.61; 3: 0.49; 4: 1.81
